assay: in vitro; conditions: human, MT4 cells, mock-infected (CC50) and HIV1 3B infected (EC50)
Description: Selectivity index, ratio of CC50 for mock-infected human MT4 cells to EC50 for HIV1 3B infected in human MT4 cells
For each entry below, report its selectivity ratio value.
Form: value (number only, do not type unit).

Item under review: `C=CCNC(=O)c1cnc(Nc2ccc(C#N)cc2)cc1Oc1c(C)cc(C)cc1C` . Reported selectivity ratio? 364

Also `C=CCNC(=O)c1cnc(Nc2ccc(C#N)cc2)cc1Oc1c(C)cc(C#N)cc1C` , if possible. 625

Also `Cc1cc(C)c(Oc2cc(Nc3ccc(C#N)cc3)ncc2C(=O)NCC2CC2)c(C)c1` , if possible. 264

Also Cc1cc(C#N)cc(C)c1Oc1cc(Nc2ccc(C#N)cc2)ncc1C(=O)NCC1CCCO1 (stereo not given) , if possible. 46
